target: furin, P09958; assay: furin cleavage Z-score vs untreated control; higher = more cleavage, active = 3.5 or more, inactive = 1 or less, 8 variable residues between constant flanks; settings: 15 min;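 note: purified furin at 1:10 enzyme:substrate in 50 mM HEPES pH 7.5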
Sequence (P09958 whole entry): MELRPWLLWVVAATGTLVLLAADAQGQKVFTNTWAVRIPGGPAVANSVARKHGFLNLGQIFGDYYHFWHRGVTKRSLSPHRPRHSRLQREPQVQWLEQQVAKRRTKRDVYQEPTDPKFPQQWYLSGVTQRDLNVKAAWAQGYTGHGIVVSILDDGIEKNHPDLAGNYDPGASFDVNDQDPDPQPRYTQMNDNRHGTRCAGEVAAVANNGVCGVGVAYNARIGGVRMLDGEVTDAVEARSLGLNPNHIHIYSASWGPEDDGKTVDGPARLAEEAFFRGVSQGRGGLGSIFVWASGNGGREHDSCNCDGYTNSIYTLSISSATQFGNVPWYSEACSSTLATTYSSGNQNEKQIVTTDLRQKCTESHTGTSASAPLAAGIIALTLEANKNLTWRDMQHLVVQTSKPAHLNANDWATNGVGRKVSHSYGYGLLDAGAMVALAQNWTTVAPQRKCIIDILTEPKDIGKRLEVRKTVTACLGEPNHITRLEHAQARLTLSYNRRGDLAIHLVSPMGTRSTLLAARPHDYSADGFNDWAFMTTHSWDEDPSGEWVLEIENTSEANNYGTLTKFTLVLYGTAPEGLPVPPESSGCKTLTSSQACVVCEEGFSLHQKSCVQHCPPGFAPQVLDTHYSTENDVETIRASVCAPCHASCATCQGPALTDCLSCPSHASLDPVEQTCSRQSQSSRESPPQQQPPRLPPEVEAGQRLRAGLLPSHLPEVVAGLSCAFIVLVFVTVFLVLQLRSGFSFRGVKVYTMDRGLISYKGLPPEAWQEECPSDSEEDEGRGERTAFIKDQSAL
The list shows a part of the results. The hit rate among all sequences tested is not known here.
Result type: furin cleavage Z-score
Answers are plain numbers.

Consider the following illustrative entries.
CADRMEECSQAGNASASA [HC1813] :: -0.476
CADQEVVTSTAGNASASA [HC2302] :: -1.54
CARIVGPRTCAGNASASA [HC1183] :: -0.921

Now examine the next entry.
Entry CAAKLVALGIAGNASASA [HC863] has what furin cleavage Z-score?
-2.69
